# test-target: human EGFR (WT) (Homo sapiens, UniProt P00533)
# Construct: purchased Carna Biosciences Inc., Japan
# Sequence (P00533 25-1210): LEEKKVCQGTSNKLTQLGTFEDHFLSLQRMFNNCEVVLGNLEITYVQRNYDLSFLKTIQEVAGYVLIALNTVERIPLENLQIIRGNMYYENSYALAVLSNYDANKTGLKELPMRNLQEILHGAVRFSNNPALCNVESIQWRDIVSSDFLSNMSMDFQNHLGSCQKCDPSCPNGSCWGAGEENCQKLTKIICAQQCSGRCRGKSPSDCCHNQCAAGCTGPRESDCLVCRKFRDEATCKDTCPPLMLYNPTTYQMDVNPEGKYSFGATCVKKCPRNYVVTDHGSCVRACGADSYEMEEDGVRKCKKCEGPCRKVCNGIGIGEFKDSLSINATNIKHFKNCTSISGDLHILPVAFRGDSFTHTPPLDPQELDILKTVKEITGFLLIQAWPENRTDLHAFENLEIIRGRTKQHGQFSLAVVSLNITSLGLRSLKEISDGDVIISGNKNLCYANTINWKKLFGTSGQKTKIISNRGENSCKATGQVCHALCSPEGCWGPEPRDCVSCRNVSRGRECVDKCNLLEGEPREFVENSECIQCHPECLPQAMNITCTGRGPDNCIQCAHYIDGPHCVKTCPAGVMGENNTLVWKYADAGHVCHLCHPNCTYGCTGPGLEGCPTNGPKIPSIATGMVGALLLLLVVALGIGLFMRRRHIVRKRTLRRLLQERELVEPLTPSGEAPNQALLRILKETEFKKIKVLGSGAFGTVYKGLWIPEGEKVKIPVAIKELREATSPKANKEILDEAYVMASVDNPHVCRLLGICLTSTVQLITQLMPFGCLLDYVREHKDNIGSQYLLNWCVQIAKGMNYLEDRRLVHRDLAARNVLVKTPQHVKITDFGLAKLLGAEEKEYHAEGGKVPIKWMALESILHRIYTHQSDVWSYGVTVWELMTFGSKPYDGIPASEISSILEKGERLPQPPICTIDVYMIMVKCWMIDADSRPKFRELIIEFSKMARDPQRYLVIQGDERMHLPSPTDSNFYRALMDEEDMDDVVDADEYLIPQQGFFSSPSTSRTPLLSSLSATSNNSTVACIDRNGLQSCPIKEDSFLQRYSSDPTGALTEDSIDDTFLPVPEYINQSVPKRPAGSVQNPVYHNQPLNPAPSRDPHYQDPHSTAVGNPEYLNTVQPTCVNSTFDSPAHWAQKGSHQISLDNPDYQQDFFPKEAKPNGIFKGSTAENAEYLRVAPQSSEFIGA
# method: Inhibitory activity against EGFR (WT) kinase
# Format: biochemical
# condition-label: Test Example 1, Table 6; ATP 1.5 μM
readout-label: IC50 (nM)

1: C#Cc1c(-c2cnc3ccccc3c2)c2c(N)ncnc2n1C12CCC(N(C)C(=O)c3ncco3)(CC1)C2
2: C#Cc1c(-c2cnc3ccccc3c2)c2c(N)ncnc2n1C12CCC(NC(=O)c3ccnn3C3CC3)(CC1)C2
3: C#Cc1c(-c2cnc3ccccc3c2)c2c(N)ncnc2n1C12CCC(NC(=O)c3nccn3C)(CC1)C2
Request: Rank descending by IC50. Use the labels to give the requested order.
Result: 1, 2, 3
(1: 3.9 nM, 2: 2.1 nM, 3: 1.4 nM)
